Data origin: the supplement of paper PMC5579334

System: STS26T
Assay: relative IC50 (inflection point of fitted dose-response curve, CellTiter-Glo viability, 72 h; top asymptote may be below 50% inhibition); higher = less potent
experimental endpoint: relative IC50 (nM)
One number for each entry, in nM.

CCCC(CCC)C(=O)O :: 254000
CC(C)c1cc(-c2n[nH]c(=O)n2-c2ccc3c(ccn3C)c2)c(O)cc1O :: 24.4
CC[C@H](CC#N)OC(=O)N[C@@H](C)c1cccc(NC(=O)Nc2ccc(-c3cnco3)c(OC)c2)c1 :: 398
Nc1ccn([C@@H]2O[C@H](CO)[C@@H](O)C2(F)F)c(=O)n1 :: 1.59
Nc1ccn([C@@H]2O[C@H](CO)[C@@H](O)[C@@H]2O)c(=O)n1 :: 236

For each of the molecules below, note its relative IC50.
1. Nc1nc2[nH]cnc2c(=S)[nH]1
2. CCS(=O)(=O)c1cccc(-c2cc(C(=O)NC3CCN(C)CC3)c(C)c3[nH]c4ncc(C)cc4c23)c1
3. CC(C)C[C@H](NC(=O)[C@H](CCc1ccccc1)NC(=O)CN1CCOCC1)C(=O)N[C@@H](Cc1ccccc1)C(=O)N[C@@H](CC(C)C)C(=O)[C@@]1(C)CO1
4. COc1ccc(S(=O)(=O)Nc2cccnc2Nc2ccc(O)cc2)cc1
5. CC(=O)O[C@H]1C(=O)[C@@]2(C)[C@H]([C@H](OC(=O)c3ccccc3)[C@]3(O)C[C@H](OC(=O)[C@H](O)[C@@H](NC(=O)c4ccccc4)c4ccccc4)C(C)=C1C3(C)C)[C@]1(OC(C)=O)CO[C@@H]1C[C@@H]2O
6. CO[C@H]1C[C@@H]2CC[C@@H](C)[C@@](O)(O2)C(=O)C(=O)N2CCCC[C@H]2C(=O)O[C@H]([C@H](C)C[C@@H]2CC[C@@H](OCCO)[C@H](OC)C2)CC(=O)[C@H](C)/C=C(\C)[C@@H](O)[C@@H](OC)C(=O)[C@H](C)C[C@H](C)/C=C/C=C/C=C/1C
7. COc1cccc2cc(-c3nc([C@H]4CC[C@H](C(=O)O)CC4)n4ncnc(N)c34)[nH]c12
8. Cc1cc(C(C)Nc2ccccc2)c2nc(N3CCOCC3)cc(=O)n2c1 (stereo not given)

Result:
1: 717; 2: 112; 3: 8.28; 4: 367; 5: 4.63; 6: 0.14; 7: 1810; 8: 875

For each of the molecules below, note its relative IC50.
1. CC(C)NC[C@@H](C(=O)N1CCN(c2ncnc3c2[C@H](C)C[C@H]3O)CC1)c1ccc(Cl)cc1
2. COc1cc2c(cc1-c1c(C)noc1C)ncc1[nH]c(=O)n([C@H](C)c3ccccn3)c12
3. COc1c(C)cnc(Cn2cnc3c(Cl)nc(N)nc32)c1C
4. Cc1cc2c(C(C)C)c(O)c(O)c(C=O)c2c(O)c1-c1c(C)cc2c(C(C)C)c(O)c(O)c(C=O)c2c1O

Result:
[544, 1130, 247, 8980]

###

Test system: S462
Assay: % inhibition of CellTiter-Glo viability at highest tested concentration (72 h), relative to DMSO and benzethonium chloride controls; higher = more inhibition
Answer each item with its documented % inhibition.
Give bare numbers, in %.

Examples with their reported % inhibition follow.
Nc1cccc2c1C(=O)N(C1CCC(=O)NC1=O)C2=O (stereo unspecified) [Pomalidomide] (max concentration tested 10000 nM) :: 8.99
Cc1c(CN2CCN(C(=O)[C@H](C)O)CC2)sc2c(N3CCOCC3)nc(-c3cnc(N)nc3)nc12 [GDC-0980] (max concentration tested 10000 nM) :: 76.6
CN1CC[C@H](c2c(O)cc(O)c3c(=O)cc(-c4ccccc4Cl)oc23)[C@H](O)C1 [Alvocidib] (max concentration tested 10000 nM) :: 99.4
CS(=O)(=O)c1ccc(C2=C(c3ccccc3)C(=O)OC2)cc1 [Rofecoxib] (max concentration tested 10000 nM) :: -1.92
CCN(CC)CCNC(=O)c1c(C)[nH]c(/C=C2\C(=O)Nc3ccc(F)cc32)c1C [Sunitinib] (max concentration tested 1000 nM) :: 16.1

# ---- query molecule ----
Ask: Report % inhibition for CC1(C)NC(=O)N(c2ccc([N+](=O)[O-])c(C(F)(F)F)c2)C1=O [Nilutamide] (max concentration tested 10000 nM) tested on S462.
Result: 6.29
